As shown below, each of these compounds has a reported inhibition at 1 µM value.
Molecular target: MAO-A (Homo sapiens, UniProt P21397)
Construct: purchased Merck MAK295
Sequence (P21397 whole entry, species assumed): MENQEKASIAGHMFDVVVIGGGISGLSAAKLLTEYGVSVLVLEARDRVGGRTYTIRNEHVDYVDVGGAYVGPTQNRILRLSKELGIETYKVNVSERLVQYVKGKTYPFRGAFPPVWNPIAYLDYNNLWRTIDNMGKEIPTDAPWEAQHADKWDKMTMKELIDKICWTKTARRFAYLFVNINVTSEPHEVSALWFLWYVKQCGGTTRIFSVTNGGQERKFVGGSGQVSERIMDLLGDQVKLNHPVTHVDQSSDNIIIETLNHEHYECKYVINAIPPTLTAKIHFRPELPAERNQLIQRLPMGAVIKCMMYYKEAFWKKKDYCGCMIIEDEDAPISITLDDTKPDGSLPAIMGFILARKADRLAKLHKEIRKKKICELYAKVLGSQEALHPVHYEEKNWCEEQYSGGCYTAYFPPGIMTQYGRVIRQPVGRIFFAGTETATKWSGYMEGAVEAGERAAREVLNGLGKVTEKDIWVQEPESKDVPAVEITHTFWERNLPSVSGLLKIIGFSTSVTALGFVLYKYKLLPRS
Assay: Monoamine Oxidase-A Inhibitor Screening Kit (Merck, MAK295), fluorometric assay
Format: biochemical
Settings: concentration 1 uM
Write down the numeric answer in % and omit the unit.

Sample records with inhibition at 1 µM:
- O=c1oc2cc(OCc3cccc(Cl)c3)ccc2c2c1CCC2: 4.35
- CCc1ccc(Nc2ncc3c(n2)CC(C)CC3=O)cc1 (centres unmarked): 0
- Cc1cc(=O)oc2c(C)c(OCc3nnc(S)n3-c3ccc(Br)cc3)ccc12: 0

// fetch inhibition at 1 µM for COc1ccc(C2=NN(C(C)=O)C(c3ccccc3)C2)c(O)c1 (centres unmarked) ; system: MAO-A (Homo sapiens, UniProt P21397) 0

Write inhibition at 1 µM of Cc1nnc2c(Cc3ccccc3)nc3ccccc3n12 ; system used: MAO-A (Homo sapiens, UniProt P21397) 0
